Target: DLG4_3, P78352
Sequence (P78352 306-403): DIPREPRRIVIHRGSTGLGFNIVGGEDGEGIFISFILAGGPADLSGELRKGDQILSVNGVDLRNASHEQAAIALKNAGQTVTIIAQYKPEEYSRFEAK
Assay: holdup assay
Parameters: key: below the threshold = too weak to quantify, mostly under pKd 3.1 to 4
Conditions: plain residues with an end cap or a label only (N-terminal biotin on a linker: ahx)
quantity.measured: pKd
Reply briefly: the number, and no unit.

# binder, recorded.number
records = [
    ("RRRKRKRTYL [HPV49-L2, P36762]", 4.26),
]

query: Requested field: pKd. Item: TVICWPGSLV [LNX2, Q8N448]
result: 3.58

The origin of these recorded values is paper PMC9482650.
